assay: Binding affinity to Saccharomyces cerevisiae Magmas by fluorometric titration
Measured Attribute: pKd
Answers are plain numbers, as −log10 of the molar value.

Consider the molecule shown here: CCC1=C(C)/C(=C/c2ccc(C(=O)NC(=N)N)cc2)CCC1(C)C What is its recorded pKd? 4.47

* * *

test system: Saccharomyces cerevisiae; test: Inhibition of TIM16-mediated Saccharomyces cerevisiae J47D proliferation in log phase at 100 uM measured for every 30 mins
The source made the active and inactive calls. The rule behind the calls is not given here.
Would you mind answering with one of these outcomes? label 1 = active, label 0 = inactive

{"Compound": "Brc1ccc2c(c1)C=CC(c1ccccc1)O2 (stereo not given)", "Class": "label 1"}

Look up the recorded call for Clc1ccc2c(c1)C=CC(c1ccccc1)O2 (stereo not given) in this test. label 1

Per the records of this test, what outcome belongs to CCCCCCCCC1C=Cc2cc([N+](=O)[O-])ccc2O1 (stereo not given) ? label 1

Hi team, can someone confirm the assay call for O=[N+]([O-])c1ccc2c(c1)C=CC(c1ccccc1)O2 (stereo not given) ? label 0

// param item: CCC1=C(C)/C(=C/c2ccc(C(=O)NC(=N)N)cc2)CCC1(C)C ; yields the recorded call label 1

* * *

test system: Saccharomyces cerevisiae; assay: Inhibition of TIM16-mediated Saccharomyces cerevisiae J47D proliferation in log phase at 10 uM measured for every 30 mins
Activity calls are given as the source filed them. The calls are words filed in the database; no cut-off is given here.
In this exercise, the only acceptable responses are Yes = active, No = inactive

Worked cases, answers included:
{"Compound": "O=[N+]([O-])c1ccc2c(c1)C=CC(c1ccccc1)O2 (stereo not given)", "System Under Test": "Saccharomyces cerevisiae", "Class": "No"}
{"Compound": "Brc1ccc2c(c1)C=CC(c1ccccc1)O2 (stereo not given)", "System Under Test": "Saccharomyces cerevisiae", "Class": "Yes"}
{"Compound": "CCC1=C(C)/C(=C/c2ccc(C(=O)NC(=N)N)cc2)CCC1(C)C", "System Under Test": "Saccharomyces cerevisiae", "Class": "Yes"}
{"Compound": "Clc1ccc2c(c1)C=CC(c1ccccc1)O2 (stereo not given)", "System Under Test": "Saccharomyces cerevisiae", "Class": "No"}

Then there is this compound:
What classification did CCCCCCCCC1C=Cc2cc([N+](=O)[O-])ccc2O1 (stereo not given) end up with in this test? No

* * *

system: Saccharomyces cerevisiae; assay: Inhibition of TIM16-mediated Saccharomyces cerevisiae J47D proliferation in log phase at 1 uM measured for every 30 mins
The source made the active and inactive calls. No cut-off for these calls is given here.
Measured Attribute: inhibition

Below are worked cases with known answers.
{"Molecule": "CCC1=C(C)/C(=C/c2ccc(C(=O)NC(=N)N)cc2)CCC1(C)C", "System Under Test": "Saccharomyces cerevisiae", "Measured Attribute": "inhibition", "Result": "inactive"}
{"Molecule": "O=[N+]([O-])c1ccc2c(c1)C=CC(c1ccccc1)O2 (stereo not given)", "System Under Test": "Saccharomyces cerevisiae", "Measured Attribute": "inhibition", "Result": "inactive"}
{"Molecule": "CCCCCCCCC1C=Cc2cc([N+](=O)[O-])ccc2O1 (stereo not given)", "System Under Test": "Saccharomyces cerevisiae", "Measured Attribute": "inhibition", "Result": "inactive"}
{"Molecule": "Clc1ccc2c(c1)C=CC(c1ccccc1)O2 (stereo not given)", "System Under Test": "Saccharomyces cerevisiae", "Measured Attribute": "inhibition", "Result": "inactive"}

Any idea what inhibition was measured for Brc1ccc2c(c1)C=CC(c1ccccc1)O2 (stereo not given) ? inactive
